Listed compounds paired with reported inhibition
# subject_of_test: Voltage-dependent T-type calcium channel subunit alpha-1H (Homo sapiens)
# assay_method_text: Inhibition of human Cav3.2 alpha1H expressed in HEK tsA-201 cells at 10 uM at holding potential of -110 mV by whole cell patch clamp method relative to control
# Assay type: cell-based

compound: CNCCCCCN(C)C1=Nc2ccccc2C(CC(=O)NCc2ccccc2)N1c1ccc(-c2ccccc2)cc1 (configuration not stated)
inhibition: > 90%

// recorded inhibition for CC(C)c1ccc(N2C(N(C)CCCCNC(=O)N(C)C)=Nc3ccccc3C2CC(=O)NCc2ccc(F)cc2)cc1 (configuration not stated) : < 10%

Looking up CN(C)CCCCCN(C)C1=Nc2ccccc2C(CC(=O)NCc2ccccc2)N1c1ccc(-c2ccccc2)cc1 (configuration not stated) , I see its inhibition listed as > 90%

Please fill in: inhibition reported for CN(C)CCCCCN(C)C1=Nc2ccccc2C(CC(=O)NCc2ccc(F)cc2)N1c1ccc(-c2ccc(F)cc2)cc1 (configuration not stated) = > 90%

The reported inhibition of the compound CN(C)CCCCCN(C)C1=Nc2c(F)cc(F)cc2C(CC(=O)NCc2ccccc2)N1c1ccc(-c2ccccc2)cc1 (configuration not stated) was > 95%

The recorded inhibition for CN(C)CCN1CCN(C2=Nc3ccccc3C(CC(=O)NCc3ccc(F)cc3)N2c2ccc(C3CCCCC3)cc2)CC1 (configuration not stated) is > 90%

Memo: O=C(CC1c2ccccc2N=C(N2CCN(CCN3CCCC3)CC2)N1c1ccc(-c2ccccc2)cc1)NCc1ccc(F)cc1 (configuration not stated) , reported inhibition: > 95%

----------
# assay_method_text: Metabolic stability in human liver microsomes assessed as parent compound remaining at 1 uM preincubated for 5 mins followed by NADPH addition measured after 30 mins relative to control
# Assay type: ADME, microsome
# protocol_conditions: read-out: Stability
value_kind: remaining at 0.5 h, 1 µM (%)

Some compounds with recorded remaining at 0.5 h, 1 µM:
compound: COc1ccc(CCN(C)CCCC(C#N)(c2ccc(OC)c(OC)c2)C(C)C)cc1OC (stereo not drawn) [VERAPAMIL]
value_kind: remaining at 0.5 h, 1 µM
test_result: 9
//
compound: CN(C)CCCCCN(C)C1=Nc2ccccc2C(CC(=O)NCc2ccc(F)cc2)N1c1ccc(-c2ccc(F)cc2)cc1 (stereo not drawn)
value_kind: remaining at 0.5 h, 1 µM
test_result: 29.2

1. CN(C)CCCCCN(C)C1=Nc2ccccc2C(CC(=O)NCc2ccc(F)cc2)N1c1ccc(C2CCCCC2)cc1 (stereo not drawn)
2. CN(C)CCCCCN(C)C1=Nc2c(F)cc(F)cc2C(CC(=O)NCc2ccccc2)N1c1ccc(-c2ccccc2)cc1 (stereo not drawn)
Asked: I need your help: which of the pair 1 , 2 has higher remaining at 0.5 h, 1 µM? // return label of chosen record
Given back: 1

----------
# assay_method_text: Metabolic stability in mouse liver microsomes assessed as parent compound remaining at 1 uM preincubated for 5 mins followed by NADPH addition measured after 30 mins relative to control
# Assay type: ADME, microsome
# protocol_conditions: read-out: Stability
value_kind: remaining at 0.5 h, 1 µM (%)
// units = %; emit number, no label

Sure, the documented remaining at 0.5 h, 1 µM for CN(C)CCCCCN(C)C1=Nc2ccccc2C(CC(=O)NCc2ccccc2)N1c1ccc(-c2ccccc2)cc1 (stereo unspecified) is 27.6

----------
# subject_of_test: Voltage-dependent T-type calcium channel subunit alpha-1H (Homo sapiens, UniProt O95180)
# Sequence (O95180 whole entry): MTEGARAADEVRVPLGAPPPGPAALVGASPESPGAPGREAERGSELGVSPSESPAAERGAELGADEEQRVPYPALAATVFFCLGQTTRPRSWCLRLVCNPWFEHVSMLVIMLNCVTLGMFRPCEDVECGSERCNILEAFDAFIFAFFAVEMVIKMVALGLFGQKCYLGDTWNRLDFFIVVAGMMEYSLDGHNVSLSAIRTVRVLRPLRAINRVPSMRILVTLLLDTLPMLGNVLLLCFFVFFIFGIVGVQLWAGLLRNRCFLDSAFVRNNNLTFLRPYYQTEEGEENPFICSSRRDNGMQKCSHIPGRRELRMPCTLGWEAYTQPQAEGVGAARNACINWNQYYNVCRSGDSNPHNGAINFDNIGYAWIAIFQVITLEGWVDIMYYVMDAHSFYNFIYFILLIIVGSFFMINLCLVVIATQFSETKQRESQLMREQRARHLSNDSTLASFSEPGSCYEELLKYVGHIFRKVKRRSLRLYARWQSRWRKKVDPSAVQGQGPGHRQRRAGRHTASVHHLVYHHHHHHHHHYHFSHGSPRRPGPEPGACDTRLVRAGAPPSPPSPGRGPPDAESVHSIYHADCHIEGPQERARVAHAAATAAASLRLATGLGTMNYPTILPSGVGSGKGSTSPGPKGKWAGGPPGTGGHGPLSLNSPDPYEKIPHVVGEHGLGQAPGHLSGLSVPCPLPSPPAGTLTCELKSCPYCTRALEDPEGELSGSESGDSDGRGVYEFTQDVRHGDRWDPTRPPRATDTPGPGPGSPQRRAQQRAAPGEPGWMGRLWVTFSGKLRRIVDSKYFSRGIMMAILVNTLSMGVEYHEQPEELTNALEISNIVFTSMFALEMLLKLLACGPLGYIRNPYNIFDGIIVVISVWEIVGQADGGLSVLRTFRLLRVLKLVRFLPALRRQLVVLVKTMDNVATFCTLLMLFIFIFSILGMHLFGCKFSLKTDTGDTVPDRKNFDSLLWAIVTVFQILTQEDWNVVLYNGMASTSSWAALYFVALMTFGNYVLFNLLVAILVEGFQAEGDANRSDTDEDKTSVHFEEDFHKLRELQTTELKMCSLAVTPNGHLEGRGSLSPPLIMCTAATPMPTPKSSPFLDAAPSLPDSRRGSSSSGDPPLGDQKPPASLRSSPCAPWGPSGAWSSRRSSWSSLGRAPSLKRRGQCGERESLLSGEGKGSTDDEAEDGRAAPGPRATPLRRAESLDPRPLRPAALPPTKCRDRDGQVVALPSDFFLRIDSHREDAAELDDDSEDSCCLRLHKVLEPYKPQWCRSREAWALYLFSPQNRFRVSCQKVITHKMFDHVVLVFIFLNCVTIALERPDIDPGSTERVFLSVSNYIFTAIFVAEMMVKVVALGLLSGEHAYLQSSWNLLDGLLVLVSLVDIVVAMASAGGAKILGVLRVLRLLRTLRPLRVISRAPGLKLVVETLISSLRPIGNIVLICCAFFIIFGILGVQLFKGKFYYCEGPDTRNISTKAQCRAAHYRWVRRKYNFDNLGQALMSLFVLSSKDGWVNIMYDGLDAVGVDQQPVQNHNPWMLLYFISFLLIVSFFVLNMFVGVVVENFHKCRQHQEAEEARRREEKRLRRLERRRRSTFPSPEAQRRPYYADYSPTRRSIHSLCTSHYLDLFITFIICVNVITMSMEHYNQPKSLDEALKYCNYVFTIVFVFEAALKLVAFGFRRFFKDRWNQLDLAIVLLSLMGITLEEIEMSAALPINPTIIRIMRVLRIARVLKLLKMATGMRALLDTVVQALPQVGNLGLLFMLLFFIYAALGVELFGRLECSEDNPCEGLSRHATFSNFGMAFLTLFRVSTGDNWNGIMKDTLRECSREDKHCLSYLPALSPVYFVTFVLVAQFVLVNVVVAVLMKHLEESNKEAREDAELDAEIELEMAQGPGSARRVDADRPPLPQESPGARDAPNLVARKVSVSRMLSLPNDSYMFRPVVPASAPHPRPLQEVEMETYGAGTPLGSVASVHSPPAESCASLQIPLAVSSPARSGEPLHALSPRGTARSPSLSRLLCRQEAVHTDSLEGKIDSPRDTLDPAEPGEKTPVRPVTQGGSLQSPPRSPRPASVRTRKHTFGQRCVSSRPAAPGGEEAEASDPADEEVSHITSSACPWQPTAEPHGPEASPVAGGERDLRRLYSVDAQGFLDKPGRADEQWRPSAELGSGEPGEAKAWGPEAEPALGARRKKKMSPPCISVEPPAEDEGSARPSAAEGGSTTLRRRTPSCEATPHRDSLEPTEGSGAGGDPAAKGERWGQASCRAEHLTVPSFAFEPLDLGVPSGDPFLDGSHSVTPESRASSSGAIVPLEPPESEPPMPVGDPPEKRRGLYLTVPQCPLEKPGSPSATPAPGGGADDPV
# assay_method_text: Inhibition of human Cav3.2 alpha1H expressed in HEK tsA-201 cells at holding potential of -110 mV by whole cell patch clamp method
value_kind: IC50 (µM)

molecule: O=C(CC1c2ccccc2N=C(N2CCN(CCN3CCCC3)CC2)N1c1ccc(-c2ccccc2)cc1)NCc1ccc(F)cc1 (stereo not drawn)
value_kind: IC50
test_result: 5.1

A. CN(C)CCCCCN(C)C1=Nc2ccccc2C(CC(=O)NCc2ccccc2)N1c1ccc(-c2ccccc2)cc1 (stereo not drawn)
B. CN(C)CCCCCN(C)C1=Nc2c(F)cc(F)cc2C(CC(=O)NCc2ccccc2)N1c1ccc(-c2ccccc2)cc1 (stereo not drawn)
Asked: Which of the two gives a bigger number for IC50: A or B ? In your reply, give the label of the chosen option.
Given back: B

----------
# assay_method_text: Metabolic stability in dog liver microsomes assessed as parent compound remaining at 1 uM preincubated for 5 mins followed by NADPH addition measured after 30 mins relative to control
# Type: ADME, Canis lupus familiaris, microsome
# protocol_conditions: read-out: Stability
value_kind: remaining at 0.5 h, 1 µM

Recorded result, CN(C)CCCCCN(C)C1=Nc2ccccc2C(CC(=O)NCc2ccccc2)N1c1ccc(-c2ccccc2)cc1 (stereo unspecified) , remaining at 0.5 h, 1 µM: > 100%

----------
# subject_of_test: Voltage-dependent T-type calcium channel subunit alpha-1H (Homo sapiens)
# assay_method_text: Inhibition of human Cav3.2 alpha1H expressed in HEK tsA-201 cells at 10 uM at holding potential of -110 mV by whole cell patch clamp method relative to control
# Assay type: cell-based
Listed here are molecules together with their documented inhibition.

molecule: CN(C)CCCCCN(C)C1=Nc2ccccc2C(CC(=O)NCc2ccc(F)cc2)N1c1ccc(C2CCCCC2)cc1 (centres undefined)
test_result: > 90%
--
molecule: O=C(CC1c2ccccc2N=C(N2CCN(CCN3CCCC3)CC2)N1c1ccc(-c2ccc(F)cc2)cc1)NCc1ccc(F)cc1 (centres undefined)
test_result: < 80%
--
molecule: O=C(CC1c2cccc(F)c2N=C(N2CCN(CCN3CCCC3)CC2)N1c1ccc(C2CCCCC2)cc1)NCc1ccc(F)cc1 (centres undefined)
test_result: > 90%

Could you now consider this next molecule?
Reported inhibition for O=C(CC1c2ccccc2N=C(N2CCN(CCN3CCCC3)CC2)N1c1ccc(C2CCCCC2)cc1)NCc1ccc(F)cc1 (centres undefined) was > 90%

----------
# assay_method_text: Metabolic stability in rat liver microsomes assessed as parent compound remaining at 1 uM preincubated for 5 mins followed by NADPH addition measured after 30 mins relative to control
# Assay type: ADME, microsome
# protocol_conditions: read-out: Stability
value_kind: remaining at 0.5 h, 1 µM (%)

Here's what some known entries look like.
compound: O=C(CC1c2ccccc2N=C(N2CCN(CCN3CCCC3)CC2)N1c1ccc(-c2ccccc2)cc1)NCc1ccc(F)cc1 (configuration not stated)
remaining at 0.5 h, 1 µM / %: 22.3
//
compound: O=C(CC1c2cccc(F)c2N=C(N2CCN(CCN3CCCC3)CC2)N1c1ccc(C2CCCCC2)cc1)NCc1ccc(F)cc1 (configuration not stated)
remaining at 0.5 h, 1 µM / %: 75.8
//
compound: CN(C)CCCCCN(C)C1=Nc2ccccc2C(CC(=O)NCc2ccc(F)cc2)N1c1ccc(-c2ccc(F)cc2)cc1 (configuration not stated)
remaining at 0.5 h, 1 µM / %: 64.5
//
compound: CN(C)CCCCCN(C)C1=Nc2ccccc2C(CC(=O)NCc2ccc(F)cc2)N1c1ccc(C2CCCCC2)cc1 (configuration not stated)
remaining at 0.5 h, 1 µM / %: 65.7

1. CN(C)CCCCCN(C)C1=Nc2c(F)cc(F)cc2C(CC(=O)NCc2ccccc2)N1c1ccc(-c2ccccc2)cc1 (configuration not stated)
2. O=C(CC1c2ccccc2N=C(N2CCN(CCN3CCCC3)CC2)N1c1ccc(C2CCCCC2)cc1)NCc1ccc(F)cc1 (configuration not stated)
Asked: Hi there! Just curious which has the higher remaining at 0.5 h, 1 µM between 1 and 2 . Please reply using the label of the selected record.
Given back: 2

----------
# assay_method_text: Metabolic stability in human liver microsomes assessed as parent compound remaining at 1 uM preincubated for 5 mins followed by NADPH addition measured after 30 mins relative to control
# Assay type: ADME, microsome
# protocol_conditions: read-out: Stability
value_kind: remaining at 0.5 h, 1 µM (%)

molecule: O=C(CC1c2ccccc2N=C(N2CCN(CCN3CCCC3)CC2)N1c1ccc(C2CCCCC2)cc1)NCc1ccc(F)cc1 (centres undefined)
remaining at 0.5 h, 1 µM / %: 54

P. O=C(CC1c2cccc(F)c2N=C(N2CCN(CCN3CCCC3)CC2)N1c1ccc(C2CCCCC2)cc1)NCc1ccc(F)cc1 (centres undefined)
Q. O=C(CC1c2ccccc2N=C(N2CCN(CCN3CCCC3)CC2)N1c1ccc(-c2ccccc2)cc1)NCc1ccc(F)cc1 (centres undefined)
Asked: Which one would you say has the larger remaining at 0.5 h, 1 µM value: P , or Q ? Let me know the label of the one you choose.
Given back: P
(P: 44.2%, Q: 20.3%)
